assay: qHTS for differential inhibitors of proliferation of Plasmodium falciparum line Dd2 (AID 1882); conditions: Plasmodium falciparum Dd2 proliferation inhibition; series mostly up to 28.7 µM;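 also: compound exposure of 72 h on infected erythrocytes; nearly all actives have a fitted effect of over 65% in size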
Inconclusive results are not listed. Active and inactive are the calls of the source. Calls follow the shape of the dose curve; as a rule, active = well fitted inhibition curve with a large enough effect; inconclusive = small, poorly fitted or top-dose-only effect; inactive = flat fitted curve, though single readings scatter.
Reply using exactly one outcome from active, inactive

{"columns": ["molecule", "assigned class"],
 "data": [
  ["Cc1oncc1C(=O)Nc1ccc(C(F)(F)F)cc1", "inactive"],
  ["O=C1CCc2cc(OCCCCc3nnnn3C3CCCCC3)ccc2N1", "inactive"]
]}

Now look at this one.
query: Per the records of this test, what outcome belongs to Cc1[nH]c(=O)c(C#N)cc1-c1ccc2nccn2c1 ?
result: inactive

###

assay: NS1 protein of Zika virus - qHTS assay to identify small molecule inhibitors in human HEK 293 cells (AID 1347053); settings: HEK293 ZIKV MR766 infection, NS1 TR-FRET, 24 h; series mostly up to 46.1 µM; also: nearly all actives have a fitted effect of over 55% in size
Inconclusive results are not listed. Active and inactive are the calls of the source. Calls follow the shape of the dose curve; as a rule, active = well fitted inhibition curve with a large enough effect; inconclusive = small, poorly fitted or top-dose-only effect; inactive = no such curve, though single readings can be large or run the other way.
value type: outcome

Below, 8 compounds whose answers are already recorded.
{"columns": ["compound", "outcome"],
 "data": [
  ["Nc1nc2[nH]cc(CCc3ccc(C(=O)N[C@@H](CCC(=O)O)C(=O)O)cc3)c2c(=O)[nH]1", "inactive"],
  ["CCN(CC)CCCC(C)Nc1ccnc2cc(Cl)ccc12 (centres undefined)", "inactive"],
  ["CCC(C)N(C)C(=O)c1cc2ccccc2c(-c2ccccc2Cl)n1 (centres undefined)", "inactive"],
  ["Nc1ncnc2nc(-c3ccc(N4CCOCC4)nc3)cc(-c3cccc(Br)c3)c12", "inactive"],
  ["O=S(=O)(N=Cc1c(O)ccc2ccccc12)c1cccs1", "inactive"],
  ["CC(=O)NC(C)c1ccc(Oc2ccc(OC(C)C)cc2)cc1 (centres undefined)", "inactive"],
  ["O=C(O)COCCN1CCN(C(c2ccccc2)c2ccc(Cl)cc2)CC1 (centres undefined)", "inactive"],
  ["CC(=O)Oc1ccccc1C(=O)O", "inactive"]
]}

Below are 2 compounds. Give each one its outcome.
1. COc1ccc(-c2oc3cc(OC)ccc3c2C(=O)c2ccc(C#N)cc2)cc1
2. COc1cc(Nc2ncc3c(n2)-c2ccc(Cl)cc2C(c2c(F)cccc2OC)=NC3)ccc1C(=O)O

result:
1. inactive
2. inactive

###

Experiment: qHTS of pediatric cancer cell lines to identify multiple opportunities for drug repurposing: Primary screen for SJ-GBM2 cells (AID 1347091); also: potency is read from the fitted curve at half-maximal effect
Conditions: SJ-GBM2 viability, CellTiter-Glo luminescence, 48 h; series mostly up to 46 µM
Method: Drug repurposing or repositioning has been offered as a strategy for drug development in oncology programs. […] [1] Shen, M et al. Quantitative high-throughput phenotypic screening of pediatric cancer cell lines identifies multiple opportunities for drug repurposing. […] Cells were assayed in growth media at a density of 500-1,000 cells/well. […] After a 15 min incubation at room temperature, samples were analyzed for luminescence intensity using a ViewLux High-throughput CCD imager equipped with clear filters.
Records with an inconclusive call do not appear. The source made the active and inactive calls. Calls come from the whole dose curve; as a rule, active = well fitted cell-killing curve with a large enough effect; inconclusive = small, poorly fitted or top-dose-only effect; inactive = no such curve, though single readings can be large or run the other way.
value type: Potency

{"columns": ["compound", "Potency"],
 "data": [
  ["O=C(NOC[C@H](O)CO)c1ccc(F)c(F)c1Nc1ccc(I)cc1F", "inactive"],
  ["CCCc1nc2c(C)cc(-c3nc4ccccc4n3C)cc2n1Cc1ccc(-c2ccccc2C(=O)O)cc1", "inactive"],
  ["OCCn1cc(-c2cnc3nnn(Cc4ccc5ncccc5c4)c3n2)cn1", "0.0059 µM (active)"],
  ["N#CC[C@H](C1CCCC1)n1cc(-c2ncnc3[nH]ccc23)cn1", "inactive"],
  ["CN(C)c1ccc(Nc2nc(N)n(C(=O)c3c(F)cccc3F)n2)cc1", "16.6 µM (active)"]
]}

Below are 5 compounds. Give each one its Potency.
1. CNCc1ccc(-c2[nH]c3cc(F)cc4c3c2CCNC4=O)cc1
2. O=C1CCc2cc(OCCCCc3nnnn3C3CCCCC3)ccc2N1
3. COc1ccc(CC2=NN3C([C@@H](CCc4ccccc4)[C@@H](C)O)=NC(C)C3C(=O)N2)cc1OC (stereo not given in full)
4. Nc1nc2c(ncn2COCCO)c(=O)[nH]1
5. Clc1ccc(Nc2nnc(Cc3ccncc3)c3ccccc23)cc1

result:
inactive
inactive
inactive
inactive
inactive
